Target: T1, Human CD19-his protein (human, UniProt P15391 20-291)
T1 construct: bought protein; also called human CD19 protein; recombinant human CD19-His; not shown: His tag
T1 sequence (looked up): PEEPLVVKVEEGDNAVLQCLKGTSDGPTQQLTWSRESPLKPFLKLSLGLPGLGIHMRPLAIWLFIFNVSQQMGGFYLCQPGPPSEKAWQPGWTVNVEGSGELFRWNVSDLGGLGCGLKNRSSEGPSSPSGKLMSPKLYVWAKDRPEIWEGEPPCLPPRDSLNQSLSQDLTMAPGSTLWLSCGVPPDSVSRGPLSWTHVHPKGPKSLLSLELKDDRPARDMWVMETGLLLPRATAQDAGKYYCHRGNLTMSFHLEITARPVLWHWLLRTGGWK
Experiment: ELISA, antibody at 0.01 nM
In this section we review reported OD450 values for a set of binders.
Lab note: write the figure by itself, no unit.

F4.145.9 (antibody, human IgG1, V domains shown, human-murine chimeric antibody, human IgG1) VH: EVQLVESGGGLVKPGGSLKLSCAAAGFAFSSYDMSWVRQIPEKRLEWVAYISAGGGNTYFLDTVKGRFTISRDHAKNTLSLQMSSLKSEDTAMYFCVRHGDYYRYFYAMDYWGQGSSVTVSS VL: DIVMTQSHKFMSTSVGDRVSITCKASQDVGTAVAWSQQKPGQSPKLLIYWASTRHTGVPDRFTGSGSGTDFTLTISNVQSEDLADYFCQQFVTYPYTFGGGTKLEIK    0.27

As a next step, examine the binder that follows.
# OD450 of F4.22.6 (antibody, human IgG1, V domains shown, human-murine chimeric antibody, human IgG1) VH: QVQLQQSGPELVKPGASVKISCKASGYAFSSFWMNWVKQRPGQGLEWIGRIYPGDGDTNYNGKFKGKATLTADKSSTTAYMHLSSLTSVDSAVYFCTRSVITAVVDWYFDVWGAGTTVTVSS VL: QIVLSQSPAILSASPGEKVTLTCRASSSVNFMHWYQQKPGSSPKPWIYATSNLASGAPARFSGSGSGTSYSLTISRVEAEDAAAYYCQQWSSYPIFTFGSGTKLEIK = 0.17
